# TEST SYSTEM: cloned human M1 muscarinic receptor (Homo sapiens, UniProt P11229)
# Sequence (P11229 1-460): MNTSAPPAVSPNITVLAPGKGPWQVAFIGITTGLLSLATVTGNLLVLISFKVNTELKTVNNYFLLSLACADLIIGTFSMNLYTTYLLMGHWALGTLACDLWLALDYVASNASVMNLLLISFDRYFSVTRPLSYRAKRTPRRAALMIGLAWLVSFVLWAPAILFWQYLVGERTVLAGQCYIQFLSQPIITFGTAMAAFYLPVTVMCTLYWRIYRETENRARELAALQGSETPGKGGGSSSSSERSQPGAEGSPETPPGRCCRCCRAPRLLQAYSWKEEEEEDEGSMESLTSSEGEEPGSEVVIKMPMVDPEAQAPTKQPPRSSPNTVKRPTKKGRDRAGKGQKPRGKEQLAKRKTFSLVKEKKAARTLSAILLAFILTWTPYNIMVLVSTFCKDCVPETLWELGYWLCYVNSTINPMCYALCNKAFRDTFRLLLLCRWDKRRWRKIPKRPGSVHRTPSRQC
# TEST DESCRIPTION: Muscarinic binding activity, 3H-QNB displacement, M1
# TEST CONTEXT: membranes from stably transfected CHO cells, 3H-QNB 100-200 pM, 25° C., 90 minutes
OBSERVATION TYPE: Ki

# return recorded Ki for input CC(C)Oc1ccc(C2C(Cl)(Cl)C23CCN(C2CCN(S(=O)(=O)c4cccc5ccccc45)CC2)CC3)cc1 (stereo not shown) [Compound 16]
> 1200 nM

Answer with the recorded Ki of CC(C)Oc1ccc(C2C(Cl)(Cl)C23CCN(C2CCN(C(=O)c4ccc(F)c5ccccc45)CC2)CC3)cc1 (stereo not shown) [Compound 13] only.
> 1200 nM

In one line, give reported Ki of the entry CC(C)Oc1ccc(C2C(Cl)(Cl)C23CCN(C2CCN(C(=O)c4cccc(F)c4N)CC2)CC3)cc1 (stereo not shown) [Compound 6] .
> 990 nM

Give Ki for CC(C)Oc1ccc(C2C(Cl)(Cl)C23CCN(C2CCN(C(=O)c4cccc(Cl)c4Cl)CC2)CC3)cc1 (stereo not shown) [Compound 3]
> 996 nM

Provide Ki value for the following molecule: CC(C)Oc1ccc(C2CC23CCN(C2CCN(C(=O)c4cccc(Cl)c4Cl)CC2)CC3)cc1 (stereo not shown) [Compound 8]
819 nM

Find the measured Ki of CC(C)Oc1ccc(C2CC23CCN(C2CCN(C(=O)c4cccc(Cl)c4N)CC2)CC3)cc1 (stereo not shown) [Compound 9] and report it.
> 900 nM

Look up and state reported Ki for CCCS(=O)(=O)N1CCC(N2CCC3(CC2)C(c2ccc(OC(C)C)cc2)C3(Cl)Cl)CC1 (stereo not shown) [Compound 15]
> 1200 nM
